Measured values drawn from PubChem BioAssay for this set.

assay-explanation: viability of HCT116 without oncogenic beta-catenin – human colon tumor cells, pilot screen (AID 823);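 note: 0% = wells killed by 20 µM Hyamine and 100% = untreated DMSO cell wells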
run-conditions: HCT116 beta-catenin knockout viability, CellTiter-Glo, 60 h; at 10 µM; stronger effect = lower value
Inconclusive results are not listed.
Field: viability. Provide a value for each of the compounds that follow.
The figure you give is taken to be in %; do not add the unit.

The reported value for "O=c1oc2c3c4c(cc2cc1-c1nc2ccccc2[nH]1)CCCN4CCC3" in terms of viability is 87.2

The reported value for "Brc1ccccc1-c1nc(-c2ccccc2)no1" in terms of viability is 72

The reported value for "N#C/C(C(=O)N1CCOCC1)=C1/SC=C(c2ccccc2)N1c1ccccc1" in terms of viability is 96.6

The reported value for "CC1(C)CC(=O)C(=CN2CCN(C(=O)c3ccco3)CC2)C(=O)C1" in terms of viability is 100

The reported value for O=C1CC(c2ccccc2)CC(O)=C1C=NCCN1CCOCC1 (configuration not stated) in terms of viability is 94.7

The reported value for "CCCCNC(=O)Cn1c(=O)n(C)c2ccccc21" in terms of viability is 106

The reported value for CC(Oc1ccc2oc(-c3ccccc3)c(C(=O)O)c2c1)C(=O)O (configuration not stated) in terms of viability is 99.3

The reported value for "COC(=O)COc1cccc(NC(=O)COc2ccccc2)c1" in terms of viability is 97.2

The reported value for "Cc1noc(NS(=O)(=O)c2ccc(NC(=O)CSc3ncccn3)cc2)c1C" in terms of viability is 109

The reported value for "CCC(CC)C(=O)NCCc1cc2ccc(C)cc2[nH]c1=O" in terms of viability is 102

The reported value for "COc1cccc(-c2cc(C(=O)N3CCCCCC3)no2)c1" in terms of viability is 96.6

The reported value for "COc1ccc(-n2nnc3c(=O)n(CC(=O)N4CCC(C)CC4)cnc32)cc1" in terms of viability is 95.8

====

assay-explanation: viability of PTEN-null HCT116 cells – cell-based, HCT116 clonal line, CellTiter-Glo, pilot screen (AID 824);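 note: 0% = 20 µM Hyamine control and 100% = vehicle cell control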
run-conditions: HCT116 PTEN-deleted viability, 60 h, at 10 µM, stronger effect = lower value
Results filed as inconclusive are left out.
value-kind: viability (%)
The figure you give is taken to be in %; do not add the unit.

The reported value for "CCOCCCNC(=O)CN1CCN(Cc2ccccc2C)C1=O" in terms of viability is 86.8

The reported value for "Cc1nn(-c2ccccc2)c(Cl)c1C(=O)Nc1c(C)n(C)n(-c2ccccc2)c1=O" in terms of viability is 94.3

The reported value for "Brc1ccccc1-c1nc(-c2ccccc2)no1" in terms of viability is 70.6

The reported value for "COc1ccc(N2CCN(S(=O)(=O)c3ccc(OC)cc3)CC2)cc1" in terms of viability is 106

The reported value for "COC(=O)c1cc(OC)c(OC)cc1NC(=O)c1ccc(Br)o1" in terms of viability is 86.1

The reported value for "CCOC(=O)/C=C1\CC(=O)Nc2nonc2N1" in terms of viability is 95.3

The reported value for "COc1ccc(OC)c(CNC(=O)CCc2nc(-c3cccs3)no2)c1" in terms of viability is 93.4

The reported value for "COC(=O)Cn1ncc2c(C)n(Cc3ccccc3)c(C)c2c1=O" in terms of viability is 96.7

The reported value for "O=C(Cn1nc(Cc2cccnc2)c2ccccc2c1=O)Nc1ccc2c(c1)OCO2" in terms of viability is 106

The reported value for "OC1(c2cccc(C(F)(F)F)c2)CCN(c2ccc(-c3ccccc3)nn2)CC1" in terms of viability is 46.8

The reported value for "COc1ccc(-c2noc(COc3ccc(Cl)c(C)c3)n2)cc1" in terms of viability is 91.5

The reported value for "CN1CCN(CCCNC(=O)Cn2ncc3c4ccccc4n(C)c3c2=O)CC1" in terms of viability is 100

The reported value for "CCCCOc1ccc(-c2ncc(Cl)cn2)cc1" in terms of viability is 96.8

The reported value for O=C(C1COc2ccccc2O1)N1CCCC1 (stereo not drawn) in terms of viability is 96.9

The reported value for CC1=C(C(=O)Nc2ccc(F)cc2)C(c2cccc(C)c2)n2nc(CCCO)nc2N1 (stereo not drawn) in terms of viability is 100

The reported value for COCCCNC(=O)Cn1cc2c(n1)CCC(C)C2 (stereo not drawn) in terms of viability is 102

The reported value for "CN(CCC#N)C(=O)Cn1nc(Cc2ccncc2)c2ccccc2c1=O" in terms of viability is 95.6

The reported value for CCOc1cc(C2CC(=O)N3CN(C4CCCCC4)CSC3=C2C#N)ccc1O (stereo not drawn) in terms of viability is 95.1

The reported value for COc1ccc(NC(=O)C2CCCN(S(=O)(=O)c3cccc4cccnc34)C2)cc1 (stereo not drawn) in terms of viability is 85.5

The reported value for "O=C(CSc1nnc(Cn2c(=O)sc3ccccc32)n1-c1ccccc1)N1CCCC1" in terms of viability is 97

The reported value for O=C(O)CN1C(=O)C2C3C=CC(C3)C2C1=O (stereo not drawn) in terms of viability is 88

The reported value for "COc1ccc(N(CC(=O)Nc2cc(C)ccc2C)S(=O)(=O)c2c(C)nn(C)c2C)cc1" in terms of viability is 80.3

The reported value for CCOC(=O)CC1C(=O)NCCN1C(=O)c1cc2c(=O)n3cccc(C)c3nc2s1 (stereo not drawn) in terms of viability is 98.8

The reported value for "COCCN(CCOC)Cc1c(C)[nH]c2ccccc2c1=O" in terms of viability is 91.3

The reported value for "O=C(Nc1c(F)cc(F)cc1Br)c1cc(-c2ccc(O)cc2)on1" in terms of viability is 85.4

The reported value for "CC(C)N(C(=O)CSc1nc2c([nH]1)c(=O)n(C)c(=O)n2C)c1ccccc1" in terms of viability is 102

The reported value for "COc1cc(-c2nc(-c3cccc(C)c3)no2)cc(OC)c1OC" in terms of viability is 81

The reported value for "CCCCOC(=O)Cc1c(O)c2ccccc2[nH]c1=O" in terms of viability is 93.2

The reported value for CC1=C(C(=O)N2CCCCC2)C(c2cccs2)C2=C(CCCC2=O)N1 (stereo not drawn) in terms of viability is 87

The reported value for Cc1cc(N2C(=O)C3C4c5ccccc5C(c5ccccc54)C3C2=O)no1 (stereo not drawn) in terms of viability is 90.7

The reported value for O=C(O)C1CC=CCC1C(=O)Nc1cccc(F)c1 (stereo not drawn) in terms of viability is 100

The reported value for "Cc1cc(C)c(NC(=O)Cn2cc3c(n2)CCCC3)c(C)c1" in terms of viability is 94.9

The reported value for "O=C(CCNS(=O)(=O)c1cccs1)Nc1ccccc1F" in terms of viability is 92.8

The reported value for COc1cccc(C2C3=C(N=C4SCC(=O)N42)c2ccccc2CC3)c1OC (stereo not drawn) in terms of viability is 68.5

The reported value for "CCCCSCc1[nH]c(=O)[nH]c1C(=O)CCCCC(=O)OCC" in terms of viability is 100

The reported value for "CNS(=O)(=O)c1ccc(Oc2ccc(S(=O)(=O)NC)cc2)cc1" in terms of viability is 83.9

The reported value for CC(=O)C1=C(C)NC(SCC(=O)c2ccc(C)cc2)=C(C#N)C1c1ccco1 (stereo not drawn) in terms of viability is 52.7

The reported value for COc1ccc(C2C(C#N)=C(C)NC3=C2C(=O)CC(C)(C)C3)c(OC)c1 (stereo not drawn) in terms of viability is 91.4
